Source: patent US20150018301A1

Target: LRRK2 WT (Homo sapiens)
Sequence (Q5S007 whole entry): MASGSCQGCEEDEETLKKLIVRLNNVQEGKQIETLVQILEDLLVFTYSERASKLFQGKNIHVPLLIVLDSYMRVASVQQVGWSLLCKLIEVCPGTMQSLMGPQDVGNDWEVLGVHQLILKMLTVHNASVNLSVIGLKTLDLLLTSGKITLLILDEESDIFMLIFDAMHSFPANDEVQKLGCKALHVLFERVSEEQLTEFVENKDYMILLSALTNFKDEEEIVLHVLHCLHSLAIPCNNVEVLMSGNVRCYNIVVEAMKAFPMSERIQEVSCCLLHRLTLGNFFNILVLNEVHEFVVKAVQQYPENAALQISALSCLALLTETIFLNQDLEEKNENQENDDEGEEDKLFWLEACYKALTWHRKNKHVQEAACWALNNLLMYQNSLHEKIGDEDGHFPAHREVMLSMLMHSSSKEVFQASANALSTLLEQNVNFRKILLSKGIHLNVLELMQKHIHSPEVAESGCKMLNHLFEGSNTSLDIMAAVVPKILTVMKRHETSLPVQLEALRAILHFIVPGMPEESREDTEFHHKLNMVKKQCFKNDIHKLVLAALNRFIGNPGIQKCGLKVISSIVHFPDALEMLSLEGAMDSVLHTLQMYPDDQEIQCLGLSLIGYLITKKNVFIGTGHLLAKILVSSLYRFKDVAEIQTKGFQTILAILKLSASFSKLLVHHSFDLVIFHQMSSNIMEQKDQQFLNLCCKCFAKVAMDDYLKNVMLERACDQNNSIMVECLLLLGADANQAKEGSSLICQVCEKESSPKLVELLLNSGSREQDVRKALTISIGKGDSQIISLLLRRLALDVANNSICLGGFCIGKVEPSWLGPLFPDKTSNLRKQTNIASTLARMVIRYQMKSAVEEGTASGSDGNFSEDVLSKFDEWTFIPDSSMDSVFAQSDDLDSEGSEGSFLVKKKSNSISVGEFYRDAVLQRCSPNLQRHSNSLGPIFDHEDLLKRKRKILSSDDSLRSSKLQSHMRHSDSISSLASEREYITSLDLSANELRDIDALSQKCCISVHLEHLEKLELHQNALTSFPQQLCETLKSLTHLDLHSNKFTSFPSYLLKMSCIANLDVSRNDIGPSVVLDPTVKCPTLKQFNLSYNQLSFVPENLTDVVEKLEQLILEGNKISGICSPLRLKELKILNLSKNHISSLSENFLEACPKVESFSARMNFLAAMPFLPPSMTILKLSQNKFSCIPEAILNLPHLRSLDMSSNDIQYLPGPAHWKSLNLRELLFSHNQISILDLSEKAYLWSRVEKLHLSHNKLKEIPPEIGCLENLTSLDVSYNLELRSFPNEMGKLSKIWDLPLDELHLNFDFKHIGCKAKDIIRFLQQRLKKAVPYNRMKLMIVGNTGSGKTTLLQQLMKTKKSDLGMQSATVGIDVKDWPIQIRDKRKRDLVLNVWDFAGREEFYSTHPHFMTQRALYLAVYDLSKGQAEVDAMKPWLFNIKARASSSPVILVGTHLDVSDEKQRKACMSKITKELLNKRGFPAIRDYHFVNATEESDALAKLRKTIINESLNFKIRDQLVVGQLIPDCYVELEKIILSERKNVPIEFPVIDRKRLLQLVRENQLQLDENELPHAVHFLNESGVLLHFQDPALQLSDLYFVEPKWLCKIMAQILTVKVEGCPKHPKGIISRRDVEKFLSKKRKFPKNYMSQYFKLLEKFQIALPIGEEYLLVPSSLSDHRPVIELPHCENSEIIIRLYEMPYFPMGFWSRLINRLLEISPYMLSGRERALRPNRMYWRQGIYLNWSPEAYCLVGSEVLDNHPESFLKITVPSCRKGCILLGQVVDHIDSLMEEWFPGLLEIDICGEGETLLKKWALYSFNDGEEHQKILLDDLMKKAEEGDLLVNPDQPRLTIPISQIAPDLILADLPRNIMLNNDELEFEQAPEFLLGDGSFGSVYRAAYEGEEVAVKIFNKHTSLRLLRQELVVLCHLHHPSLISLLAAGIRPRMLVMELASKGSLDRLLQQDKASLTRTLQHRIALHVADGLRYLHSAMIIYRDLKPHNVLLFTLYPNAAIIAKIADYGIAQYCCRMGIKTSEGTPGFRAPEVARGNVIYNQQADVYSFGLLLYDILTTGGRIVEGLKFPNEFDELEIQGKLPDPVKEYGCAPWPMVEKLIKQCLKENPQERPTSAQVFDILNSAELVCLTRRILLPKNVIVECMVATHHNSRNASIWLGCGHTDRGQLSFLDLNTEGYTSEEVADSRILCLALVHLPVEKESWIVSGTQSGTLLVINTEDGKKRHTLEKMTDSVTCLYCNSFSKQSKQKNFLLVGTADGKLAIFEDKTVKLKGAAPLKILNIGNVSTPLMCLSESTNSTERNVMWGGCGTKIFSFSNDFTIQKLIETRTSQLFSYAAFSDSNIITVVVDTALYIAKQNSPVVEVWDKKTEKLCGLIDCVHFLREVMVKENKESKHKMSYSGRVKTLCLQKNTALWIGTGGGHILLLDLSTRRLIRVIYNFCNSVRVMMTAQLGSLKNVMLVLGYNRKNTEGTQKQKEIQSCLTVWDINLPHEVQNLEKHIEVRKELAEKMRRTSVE
Assay: In vitro kinase assay: LRRK2-mediated MBP phosphorylation
Assay type: biochemical
Details: compound 16 μM; 30° C., 15 min; normalized to absence of compound; mean ± S.E.M. of three experiments
Please respond with reported MBP phosphorylation Average ± SEM for every item in the list.

Molecule	MBP phosphorylation Average ± SEM
CC(C)C(C(=O)OC(C#N)c1cccc(Oc2ccccc2)c1)c1ccc(Cl)cc1 (stereo not shown) [Inhibitor 82]	61.5 ± 54.0 % of control
O=C1Nc2ccccc2/C1=C1/Nc2ccccc2/C1=N\O [Inhibitor 70, Indirubin-3-monooxine]	33.1 ± 15.7 % of control
CNCCNS(=O)(=O)c1cccc2cnccc12 [Inhibitor 36]	50.2 ± 29.4 % of control

For every item in the list below, what is its measured MBP phosphorylation Average ± SEM?
1. O=C1c2ccccc2-c2n[nH]c3cccc1c23 [Inhibitor 68, SP600125, reference compound]
2. N#CC(=C(/N)Sc1ccccc1N)/C(C#N)=C(\N)Sc1ccccc1N [Inhibitor 2]
3. C[S+]([O-])c1ccc(-c2nc(-c3ccc(F)cc3)c(-c3ccncc3)[nH]2)cc1 (stereo not shown) [Inhibitor 3]
4. N#C/C(=C\c1ccc(O)c(O)c1)C(=O)NCc1ccccc1 [Inhibitor 25]
5. O=P(O)(O)Cc1ccccc1 [Inhibitor 74]
6. Nc1ncc2[nH]cnc2n1 [Inhibitor 44, 2-aminopurine]
7. COCc1cc(O)c(O)c(O)c1-c1c(COC)cc(O)c(O)c1O [Inhibitor 67]
8. CC1(C)[C@H](C=C(Br)Br)[C@@H]1C(=O)O[C@H](C#N)c1cccc(Oc2ccccc2)c1 [Inhibitor 81]

Response:
["31.2 ± 12.1 % of control", "101.0 ± 105 % of control", "105.9 ± 15.9 % of control", "82.9 ± 17.7 % of control", "121.8 ± 23.6 % of control", "77.2 ± 86.4 % of control", "123.2 ± 33.8 % of control", "99.6 ± 23.1 % of control"]

Respectfully, I request MBP phosphorylation Average ± SEM for each entry included below.
1. N#CC(C#N)=Cc1ccc(O)c(O)c1 [Inhibitor 11]
2. Cn1cc(C2=C(c3cn(CCCSC(=N)N)c4ccccc34)C(=O)NC2=O)c2ccccc21 [Inhibitor 33, Ro31-8220, reference compound]
3. Cl.O=S(=O)(c1cccc2c(I)cccc12)N1CCCNCC1 [Inhibitor 42]
4. O=S(=O)(NCCNC/C=C/c1ccc(Br)cc1)c1cccc2cnccc12 [Inhibitor 35]
5. CC[C@@H](CO)Nc1nc(NCc2ccccc2)c2ncn(C(C)C)c2n1 [Inhibitor 48]
6. CC(C)(C)c1cc(C=C(C#N)C#N)cc(C(C)(C)C)c1O [Inhibitor 20]

Response:
1: 55.5 ± 56.5 % of control; 2: 26.0 ± 38.5 % of control; 3: 89.4 ± 71.9 % of control; 4: 85.3 ± 54.2 % of control; 5: 100.1 ± 41.5 % of control; 6: 120.7 ± 29.4 % of control

Each molecule below has a recorded value; state its MBP phosphorylation Average ± SEM.
1. Cc1ccc(NC(=O)c2cccc(N(C)C)c2)cc1NC(=O)c1ccc(O)cc1 [Inhibitor 53]
2. CN(C)CCCn1cc(C2=C(c3c[nH]c4ccccc34)C(=O)NC2=O)c2ccccc21 [Inhibitor 31, GP109203X, reference compound]
3. Cc1cc(O)c2c(=O)c3c(O)cc(O)c4c5c(O)cc(O)c6c(=O)c7c(O)cc(C)c8c1c2c(c34)c(c78)c65 [Inhibitor 32]
4. C/C(O)=C(\C#N)C(=O)Nc1cc(Br)ccc1Br [Inhibitor 50]
5. CN(C)c1ccc(/C=C2\C(=O)Nc3ccccc32)cc1 [Inhibitor 54]

Response:
1. 152.6 ± 38.0 % of control
2. 13.0 ± 8.2 % of control
3. 160.9 ± 12 % of control
4. 138.8 ± 53.5 % of control
5. 112.8 ± 34.9 % of control

Would you be so kind as to report MBP phosphorylation Average ± SEM for each listed record?
1. CC1CNCCN1S(=O)(=O)c1cccc2cnccc12 (stereo not shown) [Inhibitor 4]
2. Cc1cc2ncc(-c3ccccc3)nc2cc1C [Inhibitor 19]
3. C#COC1(C)[C@@H]2CC[C@@H](O2)C1(C)C(=O)O (stereo partly shown) [Inhibitor 71]
4. N#C/C(=C/c1cc(Cl)cc(Cl)c1)c1cccnc1 [Inhibitor 10]
5. N#CC(C#N)=C(N)/C(C#N)=C/c1ccc2[nH]ccc2c1 [Inhibitor 27]

Response:
1: 88.0 ± 26.4 % of control; 2: 104.3 ± 14.6 % of control; 3: 99.8 ± 3.4 % of control; 4: 45.2 ± 46.1 % of control; 5: 79.5 ± 17.8 % of control

Provide MBP phosphorylation Average ± SEM for all items below, preserving their order.
1. N#CC(C#N)=Cc1ccc([N+](=O)[O-])c(O)c1 [Inhibitor 26]
2. COc1cc2ncnc(Nc3cccc(Cl)c3)c2cc1OC [Inhibitor 18]
3. N#C/C(=C\c1ccc(O)c(O)c1)C(N)=O [Inhibitor 13]

Response:
["114.3 ± 14.1 % of control", "110.0 ± 44.0 % of control", "117.3 ± 18.5 % of control"]

Okay, here is my list. What is MBP phosphorylation Average ± SEM for each of these?
1. CC(C)(C)n1nc(-c2ccc(Cl)cc2)c2c(N)ncnc21 [Inhibitor 52]
2. Brc1ccc([C@H]2CN3CCSC3=N2)cc1 [Inhibitor 75]
3. Cc1ccc(S(=O)(=O)/C=C/C#N)cc1 [Inhibitor 65]
4. C=CC(=O)c1ccc2ccccc2c1 [Inhibitor 64]

Response:
98.1 ± 44.2 % of control
83.2 ± 50.5 % of control
124.8 ± 23.5 % of control
123.7 ± 26.3 % of control
